# reported pKi; entries follow
Molecular target: imidazoline I1-receptors
Experiment: Binding to imidazoline I1-receptors, displacement of [3H]-clonidine (in vitro)
Conditions: [3H]-clonidine + 10 μM norepinephrine; bovine lateral reticular nucleus
pKi: −log10 of the molar value.

[
  {
    "COMPOUND": "Cc1ccccc1OCC1CN=C(N)O1 (single isomer, unassigned) [Example 28]",
    "SUBJECT OF TEST": "imidazoline I1-receptors",
    "pKi": 6.43
  },
  {
    "COMPOUND": "CCCNC1=NCC(COc2ccccc2C)O1 (stereo not shown)",
    "SUBJECT OF TEST": "imidazoline I1-receptors",
    "pKi": 6.17
  },
  {
    "COMPOUND": "CC(=O)c1ccccc1OCC1CN=C(N)O1 (stereo not shown)",
    "SUBJECT OF TEST": "imidazoline I1-receptors",
    "pKi": 6.77
  },
  {
    "COMPOUND": "CCNC1=NCC(COc2ccccc2C)O1 (stereo not shown)",
    "SUBJECT OF TEST": "imidazoline I1-receptors",
    "pKi": 6.77
  },
  {
    "COMPOUND": "Cc1cc(Cl)ccc1OCC1CN=C(N)O1 (stereo not shown)",
    "SUBJECT OF TEST": "imidazoline I1-receptors",
    "pKi": 6.92
  },
  {
    "COMPOUND": "Cc1ccc(OCC2CN=C(N)O2)c(C)c1 (stereo not shown)",
    "SUBJECT OF TEST": "imidazoline I1-receptors",
    "pKi": 6.80
  },
  {
    "COMPOUND": "Cc1ccccc1OCC1CN=C(N)O1 (racemic) [Example 1]",
    "SUBJECT OF TEST": "imidazoline I1-receptors",
    "pKi": 8.07
  },
  {
    "COMPOUND": "NC1=NCC(COc2ccccc2[N+](=O)[O-])O1 (stereo not shown)",
    "SUBJECT OF TEST": "imidazoline I1-receptors",
    "pKi": 6.30
  },
  {
    "COMPOUND": "CCc1ccccc1OCC1CN=C(N)O1 (stereo not shown)",
    "SUBJECT OF TEST": "imidazoline I1-receptors",
    "pKi": 7.00
  },
  {
    "COMPOUND": "Cc1cccc(C)c1OCC1CN=C(N)O1 (stereo not shown)",
    "SUBJECT OF TEST": "imidazoline I1-receptors",
    "pKi": 7.24
  },
  {
    "COMPOUND": "N#Cc1ccccc1OCC1CN=C(N)O1 (stereo not shown)",
    "SUBJECT OF TEST": "imidazoline I1-receptors",
    "pKi": 7.32
  },
  {
    "COMPOUND": "Cc1cccc(OCC2CN=C(N)O2)c1C (stereo not shown)",
    "SUBJECT OF TEST": "imidazoline I1-receptors",
    "pKi": 7.19
  },
  {
    "COMPOUND": "Cc1ccc(C)c(OCC2CN=C(N)O2)c1 (stereo not shown)",
    "SUBJECT OF TEST": "imidazoline I1-receptors",
    "pKi": 7.07
  },
  {
    "COMPOUND": "NC1=NCC(COc2ccccc2F)O1 (stereo not shown)",
    "SUBJECT OF TEST": "imidazoline I1-receptors",
    "pKi": 6.68
  },
  {
    "COMPOUND": "CC(C)c1ccccc1OCC1CN=C(N)O1 (stereo not shown)",
    "SUBJECT OF TEST": "imidazoline I1-receptors",
    "pKi": 6.92
  },
  {
    "COMPOUND": "Cc1ccccc1OCC1CN=C(N)O1 (single isomer, unassigned) [Example 29]",
    "SUBJECT OF TEST": "imidazoline I1-receptors",
    "pKi": 8.24
  }
]

---

Here, each record is paired with measured Ki data.
Molecular target: imidazoline I2-receptors
Assay: Binding to imidazoline I2-receptors, displacement of [3H]-idazoxane (in vitro)
Conditions: [3H]-idazoxane + 10 μM norepinephrine; rabbit renal cortex

[
  {
    "MOLECULE": "Cc1ccc(OCC2CN=C(N)O2)c(C)c1 (centres unmarked) [Example 10]",
    "SUBJECT OF TEST": "imidazoline I2-receptors",
    "Ki / nM": 3900
  },
  {
    "MOLECULE": "Cc1cc(Cl)ccc1OCC1CN=C(N)O1 (centres unmarked) [Example 17]",
    "SUBJECT OF TEST": "imidazoline I2-receptors",
    "Ki / nM": 1000
  },
  {
    "MOLECULE": "Cc1ccccc1OCC1CN=C(N)O1 (single isomer, unassigned) [Example 29]",
    "SUBJECT OF TEST": "imidazoline I2-receptors",
    "Ki / nM": 7500
  },
  {
    "MOLECULE": "NC1=NCC(COc2ccccc2F)O1 (centres unmarked) [Example 20]",
    "SUBJECT OF TEST": "imidazoline I2-receptors",
    "Ki / nM": 1300
  },
  {
    "MOLECULE": "CCc1ccccc1OCC1CN=C(N)O1 (centres unmarked) [Example 18]",
    "SUBJECT OF TEST": "imidazoline I2-receptors",
    "Ki / nM": 1800
  }
]

---

Experiment: pKa
MEASURE: pKa

[
  {
    "COMPOUND": "Cc1ccccc1OCC1CN=C(N)O1 (racemic)",
    "REPORTED": 8.54
  }
]

---

Molecular target: imidazoline I2-receptors
Assay: Binding to imidazoline I2-receptors, displacement of [3H]-idazoxane (in vitro)
Conditions: [3H]-idazoxane + 10 μM norepinephrine; rabbit renal cortex
pKi: −log10 of the molar value.
pKi for assorted molecules

[
  {
    "MOLECULE": "CC(C)c1ccccc1OCC1CN=C(N)O1 (centres unmarked) [Example 19]",
    "pKi": 5.68
  },
  {
    "MOLECULE": "N#Cc1ccccc1OCC1CN=C(N)O1 (centres unmarked) [Example 22]",
    "pKi": 5.62
  },
  {
    "MOLECULE": "NC1=NCC(COc2ccccc2[N+](=O)[O-])O1 (centres unmarked) [Example 21]",
    "pKi": 5.41
  },
  {
    "MOLECULE": "Cc1cccc(OCC2CN=C(N)O2)c1C (centres unmarked) [Example 13]",
    "pKi": 6.35
  },
  {
    "MOLECULE": "CC(=O)c1ccccc1OCC1CN=C(N)O1 (centres unmarked) [Example 23]",
    "pKi": 5.11
  },
  {
    "MOLECULE": "Cc1ccccc1OCC1CN=C(N)O1 (single isomer, unassigned) [Example 28]",
    "pKi": 4.89
  },
  {
    "MOLECULE": "Cc1cccc(C)c1OCC1CN=C(N)O1 (centres unmarked) [Example 9]",
    "pKi": 5.68
  },
  {
    "MOLECULE": "Cc1ccccc1OCC1CN=C(N)O1 (racemic) [Example 1]",
    "pKi": 6.04
  },
  {
    "MOLECULE": "Cc1ccc(C)c(OCC2CN=C(N)O2)c1 (centres unmarked) [Example 16]",
    "pKi": 5.80
  },
  {
    "MOLECULE": "CCCNC1=NCC(COc2ccccc2C)O1 (centres unmarked) [Example 26]",
    "pKi": 5.85
  },
  {
    "MOLECULE": "CCNC1=NCC(COc2ccccc2C)O1 (centres unmarked) [Example 27]",
    "pKi": 6.00
  }
]

---

Assay: log Po/w

[
  {
    "COMPOUND": "Cc1ccccc1OCC1CN=C(N)O1 (racemic) [Example 1]",
    "logP": 1.69
  }
]
